biological target: T1, HIS-tagged B Lymphocyte Stimulator (human, UniProt Q9Y275 71-285); experiment: BIAcore, periplasmic scFv over high density HIS-BLyS surface
T1 construct: Expressed in E. coli; also called HIS-B Lymphocyte Stimulator; histidine-tagged B Lymphocyte Stimulator; not shown: histidine tag from the pQE9 vector
T1 sequence (Q9Y275 71-285): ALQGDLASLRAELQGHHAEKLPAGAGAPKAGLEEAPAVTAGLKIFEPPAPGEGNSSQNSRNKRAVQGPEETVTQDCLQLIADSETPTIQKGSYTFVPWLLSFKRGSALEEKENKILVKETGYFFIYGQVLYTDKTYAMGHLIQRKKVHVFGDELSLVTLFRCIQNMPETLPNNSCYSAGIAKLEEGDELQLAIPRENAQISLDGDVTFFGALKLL
parameter_measured: binding result

I080G07 (scFv) scFv: QVQLVQSGAEVKKPGASVKVSCKASGYTFTSYAMHWVRQAPGQRLEWMGWINAGNGNTKYSQKFQGRVTITRDTSASTAYMELSSLRSEDTAVYYCAREGPGYYYGMDVWGQGTMVTVSSGGGGSGGGGSGGGGSALETTLTQSPGTLSLSPGERATLSCRASQAIGSNYLAWYQQKPGQPPSLLIYGASSRATGIPDRFSASGSGTDFTLTISRLEPEDFAVYYCQQYGSSITFGQGTRLEIKR	binds
